# experimentalProtocol: Cytotoxicity against human HuH7 cells
# Type: cell-based, Huh-7
experimentalReadout: CC50

- smilesRecord: "O=C(Nc1ccc(NC(=O)c2cccs2)cc1Cl)c1ccco1"
  experimentalReadout: "CC50"
  testResult: "18 µM"
- smilesRecord: "O=C(Nc1ccc2[nH]c(-c3ccccc3)nc2c1)c1ccco1"
  experimentalReadout: "CC50"
  testResult: "< 5 µM"
- smilesRecord: "Nc1ccc(C(=O)Nc2ccc3[nH]c(-c4ccccc4)nc3c2)cc1"
  experimentalReadout: "CC50"
  testResult: "< 5 µM"
- smilesRecord: "CC(=O)Nc1ccc2nc(-c3ccccn3)[nH]c2c1"
  experimentalReadout: "CC50"
  testResult: "24.8 µM"
- smilesRecord: "O=C(O)CNC(=O)/C(=C\\c1cccc([N+](=O)[O-])c1)NC(=O)c1ccc(Br)o1"
  experimentalReadout: "CC50"
  testResult: "> 50 µM"
- smilesRecord: "CCOc1cc(NC(=O)c2ccco2)c(OCC)cc1NC(=O)CC"
  experimentalReadout: "CC50"
  testResult: "36.1 µM"
- smilesRecord: "O=C(Nc1ccc2[nH]c(-c3ccccn3)nc2c1)c1ccco1"
  experimentalReadout: "CC50"
  testResult: "20 µM"
- smilesRecord: "CS(=O)(=O)N(Cc1ccccc1)c1ccc(C(=O)NCc2ccco2)cc1"
  experimentalReadout: "CC50"
  testResult: "32.7 µM"

---

Let's look at some compounds and their measured CC50.
# experimentalProtocol: Cytotoxicity against human HuH7 cells
# Type: cell-based, Huh-7
experimentalReadout: CC50 (µM)

- compound: "C=CCNC(=O)c1ccc(CN(c2cccc(Cl)c2)S(C)(=O)=O)cc1"
  experimentalReadout: "CC50"
  endpointUnit: "µM"
  resultComparator: "="
  testResult: 33
- compound: "CC(=O)Nc1ccc2[nH]c(-c3ccco3)nc2c1"
  experimentalReadout: "CC50"
  endpointUnit: "µM"
  resultComparator: "="
  testResult: 25
- compound: "CCCS(=O)(=O)c1ccc2[nH]c(NC(=O)OC)nc2c1"
  experimentalReadout: "CC50"
  endpointUnit: "µM"
  resultComparator: "<"
  testResult: 5
- compound: "COC(=O)c1ccc(C(=O)Nc2ccc3[nH]c(-c4ccccc4)nc3c2)cc1"
  experimentalReadout: "CC50"
  endpointUnit: "µM"
  resultComparator: "<"
  testResult: 5
- compound: "O=C(Nc1ccc2[nH]c(-c3ccccc3)nc2c1)c1ccccc1"
  experimentalReadout: "CC50"
  endpointUnit: "µM"
  resultComparator: "="
  testResult: 20
- compound: "Cn1cc([N+](=O)[O-])c(C(=O)Nc2ccc3[nH]c(-c4ccccc4)nc3c2)n1"
  experimentalReadout: "CC50"
  endpointUnit: "µM"
  resultComparator: "="
  testResult: 17.3
- compound: "O=C(Nc1ccc2[nH]c(-c3ccc(Cl)cc3)nc2c1)C1C2CC3CC(C2)CC1C3 (stereo unspecified)"
  experimentalReadout: "CC50"
  endpointUnit: "µM"
  resultComparator: "<"
  testResult: 5
- compound: "Cn1ncc(Cl)c1C(=O)Nc1ccc2[nH]c(-c3ccccc3)nc2c1"
  experimentalReadout: "CC50"
  endpointUnit: "µM"
  resultComparator: "<"
  testResult: 5
- compound: "O=C(Nc1cccc(Br)c1)c1ccc(Br)c(S(=O)(=O)Nc2ccccn2)c1"
  experimentalReadout: "CC50"
  endpointUnit: "µM"
  resultComparator: ">"
  testResult: 50
- compound: "CCOc1cc(NC(=O)CCl)c(OCC)cc1NC(C)=O"
  experimentalReadout: "CC50"
  endpointUnit: "µM"
  resultComparator: ">"
  testResult: 50
- compound: "O=C(COc1ccccc1Cl)Nc1ccc(Oc2ccc(F)cc2)c(C(F)(F)F)c1"
  experimentalReadout: "CC50"
  endpointUnit: "µM"
  resultComparator: "="
  testResult: 14.2

---

# Tested on: Hepatitis C virus subtype 1b
# experimentalProtocol: Inhibition of HCV genotype 1b NS5B RNA dependent RNA polymerase activity at 20 uM
Each entry below carries its reported inhibition.
experimentalReadout: inhibition

- smilesRecord: "Cn1cc([N+](=O)[O-])c(C(=O)Nc2ccc3[nH]c(-c4ccccc4)nc3c2)n1"
  testResult: "37.7%"
- smilesRecord: "CC(=O)Nc1ccc2[nH]c(-c3cccs3)nc2c1"
  testResult: "18.5%"
- smilesRecord: "O=C(Nc1ccc2[nH]c(-c3ccccn3)nc2c1)c1ccco1"
  testResult: "42.4%"
- smilesRecord: "COC(=O)c1ccc(C(=O)Nc2ccc3[nH]c(-c4ccccc4)nc3c2)cc1"
  testResult: "90%"
- smilesRecord: "CCC(=O)Nc1ccc(SC#N)c(C(F)(F)F)c1"
  testResult: "9%"
- smilesRecord: "CC(=O)Nc1ccc2[nH]c(-c3ccco3)nc2c1"
  testResult: "42%"
- smilesRecord: "Cn1ncc(Cl)c1C(=O)Nc1ccc2[nH]c(-c3ccccc3)nc2c1"
  testResult: "14%"
- smilesRecord: "Nc1ccc(C(=O)Nc2ccc3[nH]c(-c4ccccc4)nc3c2)cc1"
  testResult: "19.7%"
- smilesRecord: "C=C(C)C(=O)Nc1ccc(NC(=O)C(=C)C)c(OC(F)(F)C(F)F)c1"
  testResult: "48%"
- smilesRecord: "CS(=O)(=O)N(Cc1ccccc1)c1ccc(C(=O)NCc2ccco2)cc1"
  testResult: "8%"

---

# Test system: Hepatitis C virus subtype 1b
# experimentalProtocol: Inhibition of HCV genotype 1b NS5B RNA dependent RNA polymerase activity at 20 uM
experimentalReadout: inhibition

- smilesRecord: "O=C1NN(c2ccc(Cl)c(Cl)c2)C(=O)/C1=C/c1ccc(N2CCOCC2)c([N+](=O)[O-])c1"
  experimentalReadout: "inhibition"
  testResult: "13%"
- smilesRecord: "Cn1ncc([N+](=O)[O-])c1C(=O)Nc1ccc2[nH]c(-c3ccccc3)nc2c1"
  experimentalReadout: "inhibition"
  testResult: "54%"
- smilesRecord: "O=C(Nc1ccc2[nH]c(-c3ccccc3)nc2c1)c1ccccc1"
  experimentalReadout: "inhibition"
  testResult: "20%"

---

# experimentalProtocol: Cytotoxicity against human HuH7 cells
# Assay type: cell-based, Huh-7
Each entry belongs to exactly one class, chosen by where its CC50 falls: class 1 = under 20 µM, class 2 = from 20 µM up to 30 µM, class 3 = 30 µM and over

- smilesRecord: "Cn1ncc([N+](=O)[O-])c1C(=O)Nc1ccc2[nH]c(-c3ccccc3)nc2c1"
  categoryLabel: "class 3"
- smilesRecord: "O=C1NN(c2ccc(Cl)c(Cl)c2)C(=O)/C1=C/c1ccc(N2CCOCC2)c([N+](=O)[O-])c1"
  categoryLabel: "class 2"
- smilesRecord: "O=C(Nc1ccc(F)cc1)c1ccc(Cl)c(S(=O)(=O)N2CCOCC2)c1"
  categoryLabel: "class 1"
- smilesRecord: "Cc1ccc(C(=O)Nc2ccc(F)cc2)cc1S(=O)(=O)N1CCOCC1"
  categoryLabel: "class 1"
- smilesRecord: "CCC(=O)Nc1ccc(SC#N)c(C(F)(F)F)c1"
  categoryLabel: "class 3"
- smilesRecord: "C=C(C)C(=O)Nc1ccc(NC(=O)C(=C)C)c(OC(F)(F)C(F)F)c1"
  categoryLabel: "class 2"
- smilesRecord: "COC(=O)c1ccc(C(=O)OC)c(NS(C)(=O)=O)c1"
  categoryLabel: "class 3"
- smilesRecord: "C=CCNS(=O)(=O)c1ccc(OC)c(OC)c1"
  categoryLabel: "class 3"

---

Let's look at some compounds and their measured CC50.
# experimentalProtocol: Cytotoxicity against human HuH7 cells
# Assay type: cell-based, Huh-7

- smilesRecord: "O=C(Nc1ccc2[nH]c(-c3cccnc3)nc2c1)c1ccco1"
  endpointUnit: "µM"
  CC50: 20
- smilesRecord: "CC(=O)Nc1ccc2[nH]c(-c3cccs3)nc2c1"
  endpointUnit: "µM"
  CC50: 20
- smilesRecord: "COc1cc(/C=N/Nc2nc3ccccc3s2)ccc1OC(=O)c1ccco1"
  endpointUnit: "µM"
  CC50: 30.5

Values from ChEMBL document CHEMBL1777790
